test system: 885724-159-R-J1-PDC complex spheroid viability; test: Anticancer human tumor 885724-159-R-J1-PDC patient-derived pancreatic adenocarcinoma cell line growth inhibition [POLQ]; settings: second compound 3.16 µM; first compound 10 µM; stronger effect = lower value
Readings of viability, T/C for the listed compounds
A number alone suffices; assume %.

Here are 4 compounds together with their reported answers.
Input O=c1[nH]cc(F)c(=O)[nH]1 + COC1C(OC(N)=O)C(O)C(Oc2ccc3c(O)c(NC(=O)c4ccc(O)c(CC=C(C)C)c4)c(=O)oc3c2C)OC1(C)C . Output viability, T/C: 73.8

Input CNCc1ccc(-c2[nH]c3cc(F)cc4c3c2CCNC4=O)cc1 + Nc1ccc(C#CCN(C(=O)Cc2ncc(C(F)(F)F)cc2C(F)(F)F)c2ccc(F)cc2)nn1 . Output viability, T/C: 81.9

Input O=C(Nc1ccc(O)c(NS(=O)(=O)c2ccc(F)cc2)c1)c1ccc(-c2ccccc2)cc1 + COC1C(OC(N)=O)C(O)C(Oc2ccc3c(O)c(NC(=O)c4ccc(O)c(CC=C(C)C)c4)c(=O)oc3c2C)OC1(C)C . Output viability, T/C: 84.1

Input CC(C)n1c(=O)n(C)c2cnc3cc(F)c(-c4ccc(OCCCN5CCCCC5)nc4)cc3c21 + Cc1cccc(N(C)C(=O)C2C(O)CCN2c2nc(C)cc(C(F)(F)F)c2C#N)c1 . Output viability, T/C: 61.3

Moving on to the next compound.
Input CC(C)n1c(=O)n(C)c2cnc3cc(F)c(-c4ccc(OCCCN5CCCCC5)nc4)cc3c21 + COC1C(OC(N)=O)C(O)C(Oc2ccc3c(O)c(NC(=O)c4ccc(O)c(CC=C(C)C)c4)c(=O)oc3c2C)OC1(C)C . Output viability, T/C: 93.2

###

tested on: 885724-159-R-J1-PDC complex spheroid viability; experiment: Anticancer human tumor 885724-159-R-J1-PDC cell line growth inhibition [POLQ]; settings: second compound 0.1 µM; first compound 0.316 µM; stronger effect = lower value;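 note: spheroids exposed to compounds for 7 days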
Each record is given 1.0 if its reported viability, T/C is strictly below 90%. Records at or above 90% are given 0.0.

The examples below pair each entry with its known result.
hey, is viability, T/C for COc1cc(C2c3cc4c(cc3C(OC3OC5COC(C)OC5C(O)C3O)C3COC(=O)C23)OCO4)cc(OC)c1O (stereo unspecified) + Cc1cccc(N(C)C(=O)C2C(O)CCN2c2nc(C)cc(C(F)(F)F)c2C#N)c1 lower than 90% or not? 1.0

hey, is viability, T/C for O=c1[nH]cc(F)c(=O)[nH]1 + Cc1cccc(N(C)C(=O)C2C(O)CCN2c2nc(C)cc(C(F)(F)F)c2C#N)c1 lower than 90% or not? 0.0

***
hey, is viability, T/C for CCCS(=O)(=O)Nc1ccc(F)c(C(=O)c2c[nH]c3ncc(-c4ccc(Cl)cc4)cc23)c1F + Cc1cccc(N(C)C(=O)C2C(O)CCN2c2nc(C)cc(C(F)(F)F)c2C#N)c1 lower than 90% or not? 0.0

hey, is viability, T/C for CC1COCCN1c1cc(C2(S(C)(=N)=O)CC2)nc(-c2ccnc3[nH]ccc23)n1 (stereo unspecified) + Cc1cccc(N(C)C(=O)C2C(O)CCN2c2nc(C)cc(C(F)(F)F)c2C#N)c1 lower than 90% or not? 0.0

hey, is viability, T/C for Nc1ccn(C2OC(CO)C(O)C2(F)F)c(=O)n1 (stereo unspecified) + Nc1ccc(C#CCN(C(=O)Cc2ncc(C(F)(F)F)cc2C(F)(F)F)c2ccc(F)cc2)nn1 lower than 90% or not? 1.0

hey, is viability, T/C for O=C(c1cc(Cc2n[nH]c(=O)c3ccccc23)ccc1F)N1CCN(C(=O)C2CC2)CC1 + COC1C(OC(N)=O)C(O)C(Oc2ccc3c(O)c(NC(=O)c4ccc(O)c(CC=C(C)C)c4)c(=O)oc3c2C)OC1(C)C lower than 90% or not? 1.0

hey, is viability, T/C for COc1cccc(OCCCN)c1-c1cc(Nc2cnc(C#N)cn2)n[nH]1 + COC1C(OC(N)=O)C(O)C(Oc2ccc3c(O)c(NC(=O)c4ccc(O)c(CC=C(C)C)c4)c(=O)oc3c2C)OC1(C)C lower than 90% or not? 1.0

hey, is viability, T/C for COc1cc(C2c3cc4c(cc3C(OC3OC5COC(C)OC5C(O)C3O)C3COC(=O)C23)OCO4)cc(OC)c1O (stereo unspecified) + COC1C(OC(N)=O)C(O)C(Oc2ccc3c(O)c(NC(=O)c4ccc(O)c(CC=C(C)C)c4)c(=O)oc3c2C)OC1(C)C lower than 90% or not? 1.0

hey, is viability, T/C for COc1cc2cc(C(=O)CCC(=O)O)sc2cc1OC + Cc1cccc(N(C)C(=O)C2C(O)CCN2c2nc(C)cc(C(F)(F)F)c2C#N)c1 lower than 90% or not? 0.0

hey, is viability, T/C for COc1ccc([C@@H](O)c2cc(-c3ncnc4cc(N5CCOCC5)ccc34)c(F)cc2Cl)nn1 + Cc1cccc(N(C)C(=O)C2C(O)CCN2c2nc(C)cc(C(F)(F)F)c2C#N)c1 lower than 90% or not? 1.0

hey, is viability, T/C for COc1cccc(OCCCN)c1-c1cc(Nc2cnc(C#N)cn2)n[nH]1 + Cc1cccc(N(C)C(=O)C2C(O)CCN2c2nc(C)cc(C(F)(F)F)c2C#N)c1 lower than 90% or not? 1.0

hey, is viability, T/C for CC1COCCN1c1cc(-c2ccnn2C)c2ccnc(-c3ccn[nH]3)c2n1 (stereo unspecified) + Nc1ccc(C#CCN(C(=O)Cc2ncc(C(F)(F)F)cc2C(F)(F)F)c2ccc(F)cc2)nn1 lower than 90% or not? 1.0

hey, is viability, T/C for COc1cc2cc(C(=O)CCC(=O)O)sc2cc1OC + COC1C(OC(N)=O)C(O)C(Oc2ccc3c(O)c(NC(=O)c4ccc(O)c(CC=C(C)C)c4)c(=O)oc3c2C)OC1(C)C lower than 90% or not? 0.0

hey, is viability, T/C for C#Cc1c(F)ccc2cc(O)cc(-c3ncc4c(N5CC6CCC(C5)N6)nc(OCC56CCCN5CC(F)C6)nc4c3F)c12 (stereo unspecified) + Cc1cccc(N(C)C(=O)C2C(O)CCN2c2nc(C)cc(C(F)(F)F)c2C#N)c1 lower than 90% or not? 1.0

hey, is viability, T/C for O=C(c1cc(Cc2n[nH]c(=O)c3ccccc23)ccc1F)N1CCN(C(=O)C2CC2)CC1 + Nc1ccc(C#CCN(C(=O)Cc2ncc(C(F)(F)F)cc2C(F)(F)F)c2ccc(F)cc2)nn1 lower than 90% or not? 1.0

hey, is viability, T/C for CC(C)n1c(=O)n(C)c2cnc3cc(F)c(-c4ccc(OCCCN5CCCCC5)nc4)cc3c21 + Cc1cccc(N(C)C(=O)C2C(O)CCN2c2nc(C)cc(C(F)(F)F)c2C#N)c1 lower than 90% or not? 0.0

hey, is viability, T/C for C=CC(=O)N1CCN(c2nc(=O)n(-c3c(C)ccnc3C(C)C)c3nc(-c4c(O)cccc4F)c(F)cc23)C(C)C1 (stereo unspecified) + Nc1ccc(C#CCN(C(=O)Cc2ncc(C(F)(F)F)cc2C(F)(F)F)c2ccc(F)cc2)nn1 lower than 90% or not? 0.0

hey, is viability, T/C for CCc1cc2c(N3CCc4c(cc(Cn5ccnc5)cc4-c4cn(C)nc4C(F)(F)F)C3=O)cc(C)nc2c(OC)n1 + Cc1cccc(N(C)C(=O)C2C(O)CCN2c2nc(C)cc(C(F)(F)F)c2C#N)c1 lower than 90% or not? 1.0

hey, is viability, T/C for CCCS(=O)(=O)Nc1ccc(F)c(C(=O)c2c[nH]c3ncc(-c4ccc(Cl)cc4)cc23)c1F + Nc1ccc(C#CCN(C(=O)Cc2ncc(C(F)(F)F)cc2C(F)(F)F)c2ccc(F)cc2)nn1 lower than 90% or not? 0.0

hey, is viability, T/C for CCc1c2c(nc3ccc(O)cc13)-c1cc3c(c(=O)n1C2)COC(=O)[C@]3(O)CC + COC1C(OC(N)=O)C(O)C(Oc2ccc3c(O)c(NC(=O)c4ccc(O)c(CC=C(C)C)c4)c(=O)oc3c2C)OC1(C)C lower than 90% or not? 1.0

hey, is viability, T/C for CCc1cc2c(N3CCc4c(cc(Cn5ccnc5)cc4-c4cn(C)nc4C(F)(F)F)C3=O)cc(C)nc2c(OC)n1 + COC1C(OC(N)=O)C(O)C(Oc2ccc3c(O)c(NC(=O)c4ccc(O)c(CC=C(C)C)c4)c(=O)oc3c2C)OC1(C)C lower than 90% or not? 1.0

###

test system: 885724-159-R-J1-PDC complex spheroid viability; experiment: Anticancer human tumor 885724-159-R-J1-PDC cell line growth inhibition [POLQ]; conditions: second compound 0.0316 µM; first compound 0.1 µM; stronger effect = lower value;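 note: spheroids exposed to compounds for 7 days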
OUTCOME MEASURE: viability, T/C (%)
A number alone suffices; assume %.

Input COc1cc(C2c3cc4c(cc3C(OC3OC5COC(C)OC5C(O)C3O)C3COC(=O)C23)OCO4)cc(OC)c1O (configuration not stated) + Cc1cccc(N(C)C(=O)C2C(O)CCN2c2nc(C)cc(C(F)(F)F)c2C#N)c1 . Output viability, T/C: 90.2

Moving on to the next compound.
Input O=c1[nH]cc(F)c(=O)[nH]1 + Cc1cccc(N(C)C(=O)C2C(O)CCN2c2nc(C)cc(C(F)(F)F)c2C#N)c1 . Output viability, T/C: 101

Hello, the source for this data is PubChem BioAssay AID1963832, in case you need it.
